- System: S. cerevisiae SK1 pCDA2-eGFP (USY613), sporulating;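 note: active if sensitivity score above 5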
- Test name: CDA2-GFP sporulation assay sensitivity score (z-score vs DMSO controls); higher = stronger inhibition of sporulation, active = hit call of the paper
Where a name gives a salt, the structure may show the parent alone.
Assay endpoint: CDA2-GFP sporulation assay sensitivity score
Please give the numeric answer without any surrounding text.

{"columns": ["Compound", "Val"],
 "data": [
  ["CC(C)Oc1ccc2c(=O)c(-c3ccccc3)coc2c1 [Ipriflavone] (stock concentration (mM, diluted 1:100): 10)", -1.58],
  ["CN1CCN(CCCN2c3ccccc3Sc3ccc(Cl)cc32)CC1 [Prochlorperazine] (stock concentration (mM, diluted 1:100): 10.4)", 2.72],
  ["CC1(C)O[C@@H]2[C@@H](CO[C@@]3(COS(N)(=O)=O)OC(C)(C)O[C@@H]23)O1 [Topiramate] (stock concentration (mM, diluted 1:100): 10)", -1.32]
]}

# CDA2-GFP sporulation assay sensitivity score of O=c1c(O[C@@H]2O[C@H](CO)[C@@H](O)[C@H](O)[C@H]2O)c(-c2ccc(O)c(O)c2)oc2cc(O)cc(O)c12 [Isoquercetrin] (stock concentration (mM, diluted 1:100): 10) = -1.49

# CDA2-GFP sporulation assay sensitivity score of CNS(=O)(=O)Cc1ccc2[nH]cc(CCN(C)C)c2c1 [Sumatriptan succinate] (stock concentration (mM, diluted 1:100): 7.2) = -0.43

# CDA2-GFP sporulation assay sensitivity score of CN1C(=O)CC[C@H]1c1cccnc1 [Cotinine] (stock concentration (mM, diluted 1:100): 10) = -0.11

# CDA2-GFP sporulation assay sensitivity score of CNCC[C@@H](Oc1ccccc1C)c1ccccc1 [Atomexetine hydrochloride] (stock concentration (mM, diluted 1:100): 8.7) = 0.57

# CDA2-GFP sporulation assay sensitivity score of CC(=O)OCC(=O)NCCCOc1cccc(CN2CCCCC2)c1 [Roxatidine acetate hydrochloride] (stock concentration (mM, diluted 1:100): 9.1) = 0.57

# CDA2-GFP sporulation assay sensitivity score of O=C(NCCO[N+](=O)[O-])c1cccnc1 [Nicorandil] (stock concentration (mM, diluted 1:100): 10) = -0.11

# CDA2-GFP sporulation assay sensitivity score of CC(=O)Nc1ccc(CC(=O)O)cc1 [Actarit] (stock concentration (mM, diluted 1:100): 10) = 0.84

# CDA2-GFP sporulation assay sensitivity score of COc1cc([C@@H]2c3cc4c(cc3[C@@H](O[C@@H]3O[C@@H]5CO[C@@H](C)O[C@H]5[C@H](O)[C@H]3O)[C@H]3COC(=O)[C@H]23)OCO4)cc(OC)c1O [Etoposide] (stock concentration (mM, diluted 1:100): 10) = 3.42

# CDA2-GFP sporulation assay sensitivity score of O=C(O)/C=C/c1ccc(Cn2ccnc2)cc1 [Ozagrel hydrochloride] (stock concentration (mM, diluted 1:100): 8.6) = 0.27

# CDA2-GFP sporulation assay sensitivity score of CCN1CCCC1CNC(=O)c1cc(S(=O)(=O)CC)c(N)cc1OC (centres undefined) [Amisulpride] (stock concentration (mM, diluted 1:100): 10) = -0.38

# CDA2-GFP sporulation assay sensitivity score of O=C(CCCN1CC=C(n2c(=O)[nH]c3ccccc32)CC1)c1ccc(F)cc1 [Droperidol] (stock concentration (mM, diluted 1:100): 10) = 3.12
